Exercise: for every item that follows, state its recorded pSTAT3 (MFI) in CD8 T cells at 0.0001 µM.
# EXPERIMENTAL_TARGET: T1, IL10Rα and IL2Rγ on human primary cells (CD8 T cells, CD4 T cells, monocytes) (human) (UniProt Q13651)
# T1 sequence (looked up) 1: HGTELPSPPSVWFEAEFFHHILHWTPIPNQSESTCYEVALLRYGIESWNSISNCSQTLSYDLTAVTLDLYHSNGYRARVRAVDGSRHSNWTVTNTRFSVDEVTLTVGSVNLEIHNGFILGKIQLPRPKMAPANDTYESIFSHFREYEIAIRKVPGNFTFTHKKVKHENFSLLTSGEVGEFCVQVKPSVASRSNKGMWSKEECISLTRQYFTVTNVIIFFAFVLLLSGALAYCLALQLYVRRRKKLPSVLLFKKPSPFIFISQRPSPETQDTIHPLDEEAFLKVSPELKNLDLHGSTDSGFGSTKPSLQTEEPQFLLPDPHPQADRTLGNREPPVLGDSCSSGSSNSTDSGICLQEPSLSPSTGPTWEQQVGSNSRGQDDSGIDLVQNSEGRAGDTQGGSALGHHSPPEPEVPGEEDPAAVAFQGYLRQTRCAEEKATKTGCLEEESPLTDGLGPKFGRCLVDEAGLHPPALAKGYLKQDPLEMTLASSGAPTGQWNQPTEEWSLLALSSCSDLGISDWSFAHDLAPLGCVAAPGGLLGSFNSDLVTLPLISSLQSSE
# T1 sequence (looked up) 2: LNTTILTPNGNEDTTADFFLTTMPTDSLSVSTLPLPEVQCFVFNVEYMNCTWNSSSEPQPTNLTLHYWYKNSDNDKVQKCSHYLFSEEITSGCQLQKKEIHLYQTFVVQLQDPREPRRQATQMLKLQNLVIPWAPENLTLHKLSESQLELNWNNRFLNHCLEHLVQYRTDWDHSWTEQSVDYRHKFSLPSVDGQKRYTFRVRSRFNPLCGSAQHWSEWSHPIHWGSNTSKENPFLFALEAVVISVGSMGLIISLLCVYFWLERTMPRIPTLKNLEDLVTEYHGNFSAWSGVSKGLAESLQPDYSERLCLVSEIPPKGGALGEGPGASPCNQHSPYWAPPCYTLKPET
# TEST_METHOD_NOTES: cell-based or functional assay
Field note: include the unit after the figure.

Prompt: I'd like to know its pSTAT3 (MFI) in CD8 T cells at 0.0001 µM. The binder in question is hIL10Ra_VHH14-hIL2Rg_VHH19, linker GGGS, tag Fc (Fc fusion, not shown: a dimerising Fc or GST) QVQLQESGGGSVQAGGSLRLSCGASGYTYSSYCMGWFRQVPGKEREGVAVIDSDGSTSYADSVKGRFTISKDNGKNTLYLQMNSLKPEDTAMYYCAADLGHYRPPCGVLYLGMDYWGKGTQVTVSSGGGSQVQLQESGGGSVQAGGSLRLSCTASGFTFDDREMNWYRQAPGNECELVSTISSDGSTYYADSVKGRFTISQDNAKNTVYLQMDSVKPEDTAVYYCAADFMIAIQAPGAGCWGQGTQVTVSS
Response: 7540 MFI

Prompt: I'd like to know its pSTAT3 (MFI) in CD8 T cells at 0.0001 µM. The binder in question is hIL10Ra_VHH14-hIL2Rg_VHH19, linker GS, tag his (bispecific antibody, not shown: small tags and cut ends) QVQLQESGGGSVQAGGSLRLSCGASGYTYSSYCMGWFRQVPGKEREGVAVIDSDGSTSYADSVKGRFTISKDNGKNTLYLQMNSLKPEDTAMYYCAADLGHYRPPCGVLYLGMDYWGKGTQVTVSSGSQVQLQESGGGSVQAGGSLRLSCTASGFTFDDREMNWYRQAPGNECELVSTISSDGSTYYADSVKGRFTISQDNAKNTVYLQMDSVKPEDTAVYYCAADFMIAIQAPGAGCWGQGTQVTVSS
Response: 7400 MFI

Measured values drawn from patent US20250163162A1 for this set.
